// provenance: ChEMBL document CHEMBL1144934

# test method notes: Area under curve (AUC) was determined after intravenous dosing at 10 mg/kg in rat
# Format: ADME, organism-based
# Set-up: dose 10 mg/kg, route intravenous
# test settings: in vivo
# TRUE = AUC below 30000 ng·h/mL (exclusive); FALSE = AUC at/above 30000 ng·h/mL

- COC(=O)N[C@@H](C(=O)N1CCC[C@H]1C(=O)NCc1csc(C(=N)N)c1)C(c1ccccc1)c1ccccc1: FALSE
- COC(=O)N[C@@H](C(=O)N1CCC[C@H]1C(=O)NCc1ccc(C(=N)N)s1)C(c1ccccc1)c1ccccc1: FALSE
- COC(=O)N[C@@H](C(=O)N1CCC[C@H]1C(=O)NCc1ccc(C(=N)N)nc1)C(c1ccccc1)c1ccccc1: FALSE
- N=C(N)c1ccc(CNC(=O)[C@@H]2CCCN2C(=O)[C@H](NS(N)(=O)=O)C(c2ccccc2)c2ccccc2)s1: TRUE
- N=C(N)c1ccc(CNC(=O)[C@@H]2CCCN2C(=O)[C@H](NCC(=O)O)C(c2ccccc2)c2ccccc2)s1: TRUE
- COC(=O)N[C@@H](C(=O)N1CCC[C@H]1C(=O)NCc1ccc(C(=N)N)cc1)C(c1ccccc1)c1ccccc1: FALSE
- N=C(N)c1ccc(CNC(=O)[C@@H]2CCCN2C(=O)[C@H](NS(N)(=O)=O)C(c2ccccc2)c2ccccc2)cc1: TRUE
